test system: 786-0 renal; experiment: NCI tumour cell line growth inhibition, 48 h

| compound | TGI |
| --- | --- |
| C/C(=N\NC(N)=O)C(CN1CCCCC1)C(c1ccccc1)c1c(O)c2ccccc2oc1=O (stereo not given) | > 59.5 µM |
| COc1ccc(C(=O)c2cc(OC)c(OC)c(OC)c2)cc1OC(C)=O | > 100 µM |
| COc1ccc(OC)c(-c2nc3sccn3c2/C=C2/C(=O)Nc3ccc(Cl)cc32)c1 | > 100 µM |
| CN=C(Nn1cnnc1)OC | > 100 µM |
| CCCCC[C@@H]1OCO[C@@]2(C)/C=C(C)/C=C/C(=O)O[C@H]([C@@H](C)[C@@H](O)[C@H](C)[C@@]3(O)C[C@@H](O[C@H]4C[C@@H](O)[C@H](O)[C@@H](C)O4)[C@H](C)[C@@H](C)O3)[C@@H](OC)/C=C/C=C(\C)C[C@@H]1[C@@H]2O (stereo in doubt) | 0.676 µM |
| O=C(O)C(CCc1ccccn1)c1ccccc1 (stereo not given) | > 100 µM |
| COc1ccc(/C=C2\Cc3ccccc3C2=O)cc1OC | > 100 µM |
| COC(=O)C[CH](C(=O)OC)[Ge]([CH3])([CH3])[S]c1ccccc1 (stereo not given) | 30.7 µM |
| CCCCCc1cc2c(cc1O)CC[C@@H]1[C@@H]2CC[C@]2(C)[C@@H](O)CC[C@@H]12 | 28.9 µM |
| O=C1c2ccccc2C(=O)c2c1ccc(C(Br)Br)c2[N+](=O)[O-] | 3.45 µM |
| Cc1ccc(Cl)cc1Nc1nc(C(F)(F)F)ccc1C(=O)Nc1cccc(C(F)(F)F)c1 | 11.8 µM |
| Nc1nc(Cl)cc(N=Nc2ccccc2)n1 | > 100 µM |
| CCC1C(C)c2c([nH]c3ccccc23)C2C(=O)N(c3ccccc3)C(=O)C21 (stereo not given) | 34.5 µM |
| O=C(c1ccccc1)c1c(C(F)(F)F)n([O-])c2ccccc2[n+]1=O | > 100 µM |
| O=C(c1ccccc1)C1C(C(=O)c2ccccc2)N1Cc1ccccc1 (stereo not given) | > 100 µM |
| Cc1c[nH]c2c1C13CC1CN(C(=O)c1cc4cc(NC(=O)c5cc6ccccc6o5)ccc4[nH]1)C3=CC2=O (stereo not given) | < 0.001 µM |
| N#CCCC1C(C#N)C2CC1C1C3C=CC(C3)C21 (stereo not given) | > 100 µM |
| CN(C)CCCNc1nn2c(=O)c3ccccc3nc2c2ccccc12 | 23.7 µM |
| C=C1CCC2C3(C)COC(c4ccc(NC(C)=O)cc4)OC3CCC2(C)C1C/C=C1/C(=O)OCC1O (stereo not given) | > 100 µM |
| CC#C[C@@]1(O)CCCC[C@@H]1O | > 100 µM |
